Recorded values, source PubChem BioAssay AID1460.

- targetEntity: Microtubule-associated protein tau (Homo sapiens)
- protocolSummary: qHTS for Inhibitors of Tau Fibril Formation, Thioflavin T Binding; note: nearly all actives have a fitted effect of over 55% in size
- experimentalContext: recombinant tau K18 P301L (four-repeat tau fragment), heparin-induced fibrillization, ThT fluorescence; series mostly up to 57.4 µM
Screen size: about 270,000 compounds; about 5,800 (2.1%) were called active. Not shown: some 16% with an inconclusive outcome. Calls come from the whole dose curve; as a rule, active = well fitted inhibition curve with a large enough effect; inconclusive = small, poorly fitted or top-dose-only effect; inactive = flat fitted curve, though single readings scatter. The full list was thinned out, with actives kept by preference.
Pick one: active, inactive

Input line: So what was the verdict on `CC1CCN(c2ccc([N+](=O)[O-])cc2C(N)=O)CC1` in this test?
Output line: inactive

Input line: So what was the verdict on `O=C(Oc1ccccc1C(=S)N1CCCCC1)c1cc([N+](=O)[O-])cc([N+](=O)[O-])c1` in this test?
Output line: active

Input line: So what was the verdict on Cc1cc(NC(=O)CN2CCCC(C)C2)n(-c2nc3ccccc3s2)n1 (stereo unspecified) in this test?
Output line: inactive

Input line: So what was the verdict on COC(=O)c1ccccc1NC(=O)C(Cc1ccccc1)N1Cc2ccccc2C1=O (stereo unspecified) in this test?
Output line: inactive

Input line: So what was the verdict on `O=C(/C=C/c1ccccc1)c1ccccc1O` in this test?
Output line: inactive

Input line: So what was the verdict on `COc1ccc2oc(=O)c(C(=O)O)cc2c1` in this test?
Output line: inactive

Input line: So what was the verdict on `COc1ccc(C(=O)Cc2cnn(-c3ccccc3)c2)c(O)c1` in this test?
Output line: inactive

Input line: So what was the verdict on `O=[N+]([O-])c1cccc(S(=O)(=O)N2CCCCCC2)c1` in this test?
Output line: inactive

Input line: So what was the verdict on `COc1ccccc1-c1nc(SC)n[nH]1` in this test?
Output line: inactive

Input line: So what was the verdict on `O=[N+]([O-])c1ccc(N2CCN(c3ccc(O)cc3)CC2)c(Cl)c1` in this test?
Output line: active

Input line: So what was the verdict on `CCN1CCN(c2ccc([N+](=O)[O-])cc2C(=O)c2ccc(Cl)cc2)CC1` in this test?
Output line: inactive
